# target.system: rat NaPi-2b (Rattus norvegicus, UniProt Q9JJ09)
# Sequence (Q9JJ09 1-695): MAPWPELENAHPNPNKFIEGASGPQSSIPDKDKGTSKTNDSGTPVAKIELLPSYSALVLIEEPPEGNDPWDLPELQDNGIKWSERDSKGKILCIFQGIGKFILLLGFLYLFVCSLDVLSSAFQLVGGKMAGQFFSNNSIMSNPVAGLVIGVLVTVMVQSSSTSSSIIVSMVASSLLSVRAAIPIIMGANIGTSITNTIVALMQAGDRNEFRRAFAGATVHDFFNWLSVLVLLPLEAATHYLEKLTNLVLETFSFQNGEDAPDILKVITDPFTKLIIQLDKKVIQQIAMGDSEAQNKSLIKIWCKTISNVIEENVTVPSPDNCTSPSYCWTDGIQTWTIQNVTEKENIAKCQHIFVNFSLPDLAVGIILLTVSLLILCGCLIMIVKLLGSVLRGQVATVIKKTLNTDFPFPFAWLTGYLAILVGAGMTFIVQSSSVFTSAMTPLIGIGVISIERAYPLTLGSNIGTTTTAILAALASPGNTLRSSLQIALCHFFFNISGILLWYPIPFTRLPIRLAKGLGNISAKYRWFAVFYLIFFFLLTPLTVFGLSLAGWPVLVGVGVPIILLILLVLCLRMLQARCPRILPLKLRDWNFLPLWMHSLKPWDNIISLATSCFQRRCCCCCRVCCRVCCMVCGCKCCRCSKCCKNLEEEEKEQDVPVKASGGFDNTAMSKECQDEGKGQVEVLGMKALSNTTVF
# experiment.description: Sodium-dependent phosphate uptake of Xenopus oocytes which expressed NaPi-2b (32P)
# conditions: Xenopus oocytes expressing rat NaPi-2b, 32P radioactive phosphorus; read-out: IC50 (phosphate uptake inhibitory activity)
Each record here notes measured IC50.
measure.name: IC50

molecule	target.system	endpoint.value
CC(O)CN(Cc1cccc(C(=O)Nc2ccc(F)cc2C(=O)N/N=C/c2cccc(F)c2)c1)CC(C)O (stereo not drawn)	rat NaPi-2b (Rattus norvegicus, UniProt Q9JJ09)	< 3 µM
O=C(Nc1ccc(Br)cc1C(=O)N/N=C/c1ccc(Cl)c(C(F)(F)F)c1)c1ccc(CSCCO)cc1	rat NaPi-2b (Rattus norvegicus, UniProt Q9JJ09)	< 1 µM
CCN(CC)CCN(C)Cc1cccc(C(=O)Nc2ccc(I)cc2C(=O)N/N=C/c2ccc(F)cc2)c1	rat NaPi-2b (Rattus norvegicus, UniProt Q9JJ09)	< 3 µM
